- assayTarget: Regulator of G-protein signaling 8 (Homo sapiens)
- method: RGS8-Galphao interaction modulators, dose response, biochemical, multiplex bead flow cytometry (AID 1869)
- conditionDescription: bead-based flow cytometry RGS8-Galphao binding
The source made the active and inactive calls. The rule behind the calls is not given here.
Outcomes: yes for active, no for inactive

>>> qualitativelabel("COc1ccc(Br)cc1/C=N/Nc1cccc(C(=O)O)c1")
"no"
>>> qualitativelabel("CCOC(=O)/C(C(=O)Nc1ccccc1Cl)=C1/NC(C)(C)Cc2ccccc21")
"no"
>>> qualitativelabel("NS(=O)(=O)c1ccc(N/N=C/c2ccc(O)c(O)c2O)c([N+](=O)[O-])c1")
"yes"
>>> qualitativelabel("CCOC(=O)N=Nc1c(O)n(C)c2ccccc12")
"no"

----------
- assayTarget: Regulator of G-protein signaling 8 (Homo sapiens)
- method: RGS8-Galphao interaction modulators, dose response, biochemical, multiplex bead flow cytometry (AID 1869)
- conditionDescription: bead-based flow cytometry RGS8-Galphao binding; measured here: Ki for RGS8-Galphao binding
The label satisfied is reserved for Ki strictly under 4 µM; not satisfied covers values equal to or above it.

>>> qualitativelabel("O=C1C(Cl)=C(N2CCCCC2)C(=O)C(Cl)=C1c1cnc(N2CCCCC2)s1")
"satisfied"
>>> qualitativelabel("CC(NC(=O)c1sc2cc([N+](=O)[O-])ccc2c1Cl)C(C)(C)C (stereo unspecified)")
"satisfied"
>>> qualitativelabel("O=C1OCC2OC(O)C(O)C(O)C2OC(=O)c2cc(O)c(O)c(O)c2-c2c(O)c(O)c3oc(=O)c4c(c(O)c(O)c5oc(=O)c2c3c54)-c2c1cc(O)c(O)c2O (stereo unspecified)")
"satisfied"
>>> qualitativelabel("CCC(=O)NC(c1ccc(C)cc1)c1cc([N+](=O)[O-])c2cccnc2c1O (stereo unspecified)")
"not satisfied"
>>> qualitativelabel("CCc1c(C(=O)Nc2ccccc2)c(C)[nH]c(=S)c1C#N")
"not satisfied"
>>> qualitativelabel("CCC(=O)NC1=C(Cl)C(=O)C(NC(=O)CC)=C(Cl)C1=O")
"satisfied"
>>> qualitativelabel("Nc1c(C(=O)NCC2CCCO2)sc2nc3c(c(-c4ccco4)c12)CC/C3=C\\c1ccco1 (stereo unspecified)")
"not satisfied"
>>> qualitativelabel("Cc1cccc(N2CCN(C(=O)Cn3sc4nc(C)cc(C)c4c3=O)CC2C)c1 (stereo unspecified)")
"not satisfied"
>>> qualitativelabel("CN(C)S(=O)(=O)c1cccc(-n2sc3ccccc3c2=O)c1")
"satisfied"
>>> qualitativelabel("CCNc1ccc2noc3c2c1C(=O)c1ccccc1-3")
"not satisfied"
>>> qualitativelabel("O=c1c2ccccc2sn1-c1cc(S(=O)(=O)N2CCOCC2)ccc1N1CCCC1")
"satisfied"
>>> qualitativelabel("O=C(Cc1csc(N2CCOCC2)n1)N/N=C/c1ccc(O)c(O)c1O")
"not satisfied"
>>> qualitativelabel("Cc1[nH]n(-c2ccccc2)c(=S)c1C=NCCCN=Cc1c(C)[nH]n(-c2ccccc2)c1=S")
"not satisfied"
>>> qualitativelabel("COc1ccc(OC)c(CCNC(=O)Cn2sc3nc(C)cc(C)c3c2=O)c1")
"satisfied"
>>> qualitativelabel("O=C(COc1ccccc1C(=O)N/N=C\\c1ccc(O)c(O)c1)N/N=C/c1ccc(O)c(O)c1")
"satisfied"
>>> qualitativelabel("CC(=O)N(O)CCCCCNC(=O)CCC(=O)N(O)CCCCCNC(=O)CCC(=O)N(O)CCCCCN")
"satisfied"
>>> qualitativelabel("Cc1[nH]n(-c2ccccc2)c(=S)c1C=Nc1cccc([N+](=O)[O-])c1")
"satisfied"
>>> qualitativelabel("CN(C)c1ncc(C2=C(Cl)C(=O)C(N3CCCC3)=C(Cl)C2=O)s1")
"satisfied"
>>> qualitativelabel("COc1ccc(C2=CC(=O)C=CC2=O)cc1")
"not satisfied"
>>> qualitativelabel("Cc1cc(Cl)ccc1N=c1ssnc1Cl")
"not satisfied"
>>> qualitativelabel("COC(=O)CCC(=O)Nc1sc(C)c(C)c1C(N)=O")
"not satisfied"
